system: MDA-MB-231 (human breast cancer) cell line; assay: MTT cell viability assay in MDA-MB-231 cells; type: cell-based; conditions: Homo sapiens, MDA-MB-231, 72 h, MDA-MB-231, 25 µM, 72 h, MTT; read-out: Cell Viability (%) ± SD
Endpoint Name: viability at 25 µM (%)
Just the number in %, nothing appended.

# Compound, viability at 25 µM, %
data = [
    ("O=[N+]([O-])c1ccc2[nH]cc(-c3cc(C[C@@H]4O[C@H](CO)[C@H](O)[C@H](O)[C@H]4O)no3)c2c1", 94.5),
    ("OC[C@H]1O[C@@H](CC2=NNC(c3c[nH]c4ccccc34)C2)[C@H](O)[C@@H](O)[C@@H]1O (stereo partly drawn)", 76.8),
    ("O=C(/C=C/c1c[nH]c2ccc(Br)cc12)C[C@@H]1O[C@H](CO)[C@H](O)[C@H](O)[C@H]1O", 113),
    ("OC[C@H]1O[C@@H](Cc2cc(-c3c[nH]c4ccc(Br)cc34)on2)[C@H](O)[C@@H](O)[C@H]1O", 89.4),
    ("O=C(/C=C/c1c[nH]c2ccccc12)C[C@@H]1O[C@H](CO)[C@H](O)[C@H](O)[C@H]1O", 94.2),
]

// switching to the query compound
Exam item: For MDA-MB-231 (human breast cancer) cell line, give the measured viability at 25 µM of the entry OC[C@H]1O[C@@H](Cc2cc(-c3c[nH]c4ccc(Cl)cc34)on2)[C@H](O)[C@@H](O)[C@H]1O
Marked response: 96

Source of measurements: paper PMC7170901
